# tested-target: VEGA-NRP1 (Homo sapiens, UniProt O14786)
# Sequence (P15692 whole entry): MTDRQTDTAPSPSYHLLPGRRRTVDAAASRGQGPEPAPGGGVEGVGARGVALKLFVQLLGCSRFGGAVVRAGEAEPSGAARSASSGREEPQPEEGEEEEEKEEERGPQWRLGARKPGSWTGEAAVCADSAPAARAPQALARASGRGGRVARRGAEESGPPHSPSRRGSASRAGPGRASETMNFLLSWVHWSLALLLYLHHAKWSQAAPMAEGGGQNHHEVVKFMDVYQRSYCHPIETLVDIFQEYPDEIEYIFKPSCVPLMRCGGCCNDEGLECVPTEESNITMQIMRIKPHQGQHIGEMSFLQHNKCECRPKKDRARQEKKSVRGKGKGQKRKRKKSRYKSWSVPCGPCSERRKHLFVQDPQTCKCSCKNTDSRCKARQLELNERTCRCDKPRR
# Sequence (O14786 whole entry): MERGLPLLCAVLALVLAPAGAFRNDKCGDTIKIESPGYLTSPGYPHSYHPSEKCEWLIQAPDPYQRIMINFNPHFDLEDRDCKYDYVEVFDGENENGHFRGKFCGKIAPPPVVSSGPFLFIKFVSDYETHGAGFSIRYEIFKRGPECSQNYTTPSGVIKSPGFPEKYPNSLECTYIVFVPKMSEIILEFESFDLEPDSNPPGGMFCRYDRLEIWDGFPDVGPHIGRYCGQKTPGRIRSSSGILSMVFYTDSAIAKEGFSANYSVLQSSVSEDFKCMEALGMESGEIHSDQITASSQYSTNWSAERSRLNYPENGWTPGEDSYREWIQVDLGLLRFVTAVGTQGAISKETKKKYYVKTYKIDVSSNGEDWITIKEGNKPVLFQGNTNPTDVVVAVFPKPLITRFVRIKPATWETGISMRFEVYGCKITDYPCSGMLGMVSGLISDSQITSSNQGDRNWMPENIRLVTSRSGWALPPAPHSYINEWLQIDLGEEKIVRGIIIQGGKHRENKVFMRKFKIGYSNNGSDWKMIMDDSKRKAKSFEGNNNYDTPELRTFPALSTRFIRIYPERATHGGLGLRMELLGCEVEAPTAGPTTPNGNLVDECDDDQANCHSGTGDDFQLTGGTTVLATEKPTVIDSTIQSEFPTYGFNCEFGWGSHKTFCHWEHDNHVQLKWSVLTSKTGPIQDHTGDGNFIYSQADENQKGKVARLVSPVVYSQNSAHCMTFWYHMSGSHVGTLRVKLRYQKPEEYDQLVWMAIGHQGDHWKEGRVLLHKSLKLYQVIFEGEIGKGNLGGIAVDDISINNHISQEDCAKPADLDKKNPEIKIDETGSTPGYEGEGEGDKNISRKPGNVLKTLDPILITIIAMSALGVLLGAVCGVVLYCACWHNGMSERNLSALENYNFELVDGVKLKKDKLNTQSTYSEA
# assay-details: Inhibition of human biotinylated-VEGFA165 binding to recombinant human NRP-1 measured after 2 hrs by chemiluminescent based ELISA
# Format: protein assay
# applied-conditions: read-out: IC50
pIC50: −log10 of the molar value. *1 amine or outer side, *2 acyl side, *3 side chain or, on linkers, in order; H or OH if unused. Where a SMILES comes first, the peptide text is derived from it. Side-chain parts run from the residue outwards. [ ]: non-standard residue; d: D form. ξ: configuration not given here. Oic(3aξ,7aξ) = O=C(O)[C@@H]1CC2CCCCC2N1; X1 = O=C([C@H](CCCS)N[*:1])[*:2]; hArg = N=C(N)NCCCC[C@H](N)C(=O)O; hCys = N[C@@H](CCS)C(=O)O; Dab = NCC[C@H](N)C(=O)O; Dap = NC[C@H](N)C(=O)O; Mpa = O=C(O)CCS
Each entry below carries its recorded pIC50.
observation-type: pIC50

{"compound": "N=C(N)NCCCC[C@H](NC(=O)CCS)C(=O)NCCCC[C@H](N)C(=O)N[C@@H](CCN)C(=O)N1C2CCCCC2C[C@H]1C(=O)N[C@@H](CCCNC(=N)N)C(=O)O (stereo partly drawn) (H-K([hArg-Mpa])[Dab][Oic(3aξ,7aξ)]R-OH)", "measurement": 5.66}
{"compound": "N=C(N)NCCCC[C@H](NC(=O)[C@@H](N)CN)C(=O)NCCCC[C@H](N)C(=O)N[C@@H](CCN)C(=O)N1C2CCCCC2C[C@H]1C(=O)N[C@@H](CCCNC(=N)N)C(=O)O (stereo partly drawn) (H-K([hArg-Dap])[Dab][Oic(3aξ,7aξ)]R-OH)", "measurement": 6.48}
{"compound": "N=C(N)NCCCC[C@H](N)C(=O)NCCCC[C@H](NC(=O)CCS)C(=O)N[C@@H](CCN)C(=O)N1C2CCCCC2C[C@H]1C(=O)N[C@@H](CCCNC(=N)N)C(=O)O (stereo partly drawn) ([Mpa]K(hArg)[Dab][Oic(3aξ,7aξ)]R-OH)", "measurement": 5.95}
{"compound": "N=C(N)NCCCC[C@H](NC(=O)[C@@H](N)CO)C(=O)NCCCC[C@H](N)C(=O)N[C@@H](CCN)C(=O)N1C2CCCCC2C[C@H]1C(=O)N[C@@H](CCCNC(=N)N)C(=O)O (stereo partly drawn) (HELM PEPTIDE1{K.[Dab].[O=C([C@@H]1CC2CCCCC2N1[*:1])[*:2]].R}|PEPTIDE2{S.[N=C(N)NCCCC[C@H](N[*:1])C(=O)[*:2]]}$PEPTIDE1,PEPTIDE2,1:R3-2:R2$$$V2.0)", "measurement": 6.09}
{"compound": "CSC[C@H](N)C(=O)N[C@@H](CCCCNC(=O)[C@@H](N)CCCCNC(=N)N)C(=O)N[C@@H](CCN)C(=O)N1C2CCCCC2C[C@H]1C(=O)N[C@@H](CCCNC(=N)N)C(=O)O (stereo partly drawn) (H-C(Me)K(hArg)[Dab][Oic(3aξ,7aξ)]R-OH)", "measurement": 5.61}
{"compound": "N=C(N)NCCCC[C@H](NC(=O)[C@@H](N)CCS)C(=O)NCCCC[C@H](N)C(=O)N[C@@H](CCN)C(=O)N1C2CCCCC2C[C@H]1C(=O)N[C@@H](CCCNC(=N)N)C(=O)O (stereo partly drawn) (H-K([hArg-hCys])[Dab][Oic(3aξ,7aξ)]R-OH)", "measurement": 6.20}
{"compound": "CC[C@H](N)C(=O)N[C@@H](CCCCNC(=O)[C@@H](N)CCCCNC(=N)N)C(=O)N[C@@H](CCN)C(=O)N1C2CCCCC2C[C@H]1C(=O)N[C@@H](CCCNC(=N)N)C(=O)O (stereo partly drawn) (HELM PEPTIDE1{[Abu].K.[Dab].[O=C([C@@H]1CC2CCCCC2N1[*:1])[*:2]].R}|PEPTIDE2{[N=C(N)NCCCC[C@H](N)C(=O)[*:2]]}$PEPTIDE1,PEPTIDE2,2:R3-1:R2$$$V2.0)", "measurement": 5.62}
{"compound": "N=C(N)NCCCC[C@H](N)C(=O)NCCCC[C@H](NC(=O)[C@@H](N)CCCS)C(=O)N[C@@H](CCN)C(=O)N1C2CCCCC2C[C@H]1C(=O)N[C@@H](CCCNC(=N)N)C(=O)O (stereo partly drawn) (H-[X1]K(hArg)[Dab][Oic(3aξ,7aξ)]R-OH)", "measurement": 6.05}

Values from ChEMBL document CHEMBL5365540
